- Tested on: Collinsella aerofaciens
- Assay Text: growth AUC relative to DMSO control (median of replicates) (fraction); higher = more growth (less inhibition), active = hit call of the paper;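 active = AUC reduced over 20% with Padj below 0.05 in at least 2 of 3 replicates; inactive = otherwise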
- Stated Conditions: 20 µM; 24 h
Bench note: report the call from active, inactive

Q. GET /call?item= "O.O=C(Nc1ccc(Cl)c(Cl)c1)Nc1cc(Cl)ccc1Oc1ccc(Cl)cc1S(=O)(=O)[O-].[Na+]" returns the recorded outcome of this test.
A. active

Q. GET /call?item= "CCNC(=O)[C@@H](C)OC(=O)Nc1ccccc1" returns the recorded outcome of this test.
A. inactive

Q. GET /call?item= CCCCCCC(C)OC(=O)COc1nc(F)c(Cl)c(N)c1Cl (configuration not stated) returns the recorded outcome of this test.
A. inactive

Q. GET /call?item= "O=C(O)COc1cccc(Cl)c1Cl" returns the recorded outcome of this test.
A. inactive

Q. GET /call?item= "CC1=C(C(=O)Nc2ccccc2)CCCO1" returns the recorded outcome of this test.
A. inactive

Q. GET /call?item= "Cc1nc(C(F)(F)F)c(C(=O)Nc2c(Br)cc(OC(F)(F)F)cc2Br)s1" returns the recorded outcome of this test.
A. inactive

Q. GET /call?item= CC(Oc1ccc(Cl)cc1Cl)C(=O)NC(C)(C#N)C(C)C (configuration not stated) returns the recorded outcome of this test.
A. inactive

Q. GET /call?item= "O=[N+](Nc1ccccc1)c1ccccc1" returns the recorded outcome of this test.
A. inactive

Q. GET /call?item= "COc1c(I)cc(C#N)cc1I" returns the recorded outcome of this test.
A. inactive

Q. GET /call?item= "O=C(Nc1ccc(O)cc1-c1ccc(Cl)cc1)c1cccnc1Cl" returns the recorded outcome of this test.
A. inactive

Q. GET /call?item= CCOC(=O)C1=NN(c2ccc(Cl)cc2Cl)C(C)(C(=O)OCC)C1 (configuration not stated) returns the recorded outcome of this test.
A. inactive

Q. GET /call?item= "Oc1ccccc1" returns the recorded outcome of this test.
A. inactive

Q. GET /call?item= "CNC(=O)/C(=N/OC)c1ccccc1COc1cc(C)ccc1C" returns the recorded outcome of this test.
A. inactive

Q. GET /call?item= "CC(C)(NC(=O)NCc1ccccc1Cl)c1ccccc1" returns the recorded outcome of this test.
A. inactive

Q. GET /call?item= "Cc1nn(C)c(OCC(=O)c2ccccc2)c1C(=O)c1ccc(Cl)cc1Cl" returns the recorded outcome of this test.
A. inactive

Q. GET /call?item= "CCOCN(C(=O)C(=O)O)c1c(C)cccc1CC" returns the recorded outcome of this test.
A. inactive

Q. GET /call?item= CC(=O)CC(c1ccccc1)c1c(O)c2ccccc2oc1=O (configuration not stated) returns the recorded outcome of this test.
A. inactive

Q. GET /call?item= "COc1cc(OC)nc(NC(=O)NS(=O)(=O)Nc2ccccc2C(=O)N(C)C)n1" returns the recorded outcome of this test.
A. inactive

Q. GET /call?item= "O=C(O)C1(C(=O)Nc2ccc(Cl)cc2Cl)CC1" returns the recorded outcome of this test.
A. inactive

Q. GET /call?item= "COc1cc(OC)nc(NC(=O)NS(=O)(=O)N(C)S(C)(=O)=O)n1" returns the recorded outcome of this test.
A. inactive

Q. GET /call?item= COC(=O)c1ccc(C)cc1C1=NC(C)(C(C)C)C(=O)N1 (racemic) returns the recorded outcome of this test.
A. inactive

Q. GET /call?item= CCC(C)c1cc([N+](=O)[O-])cc([N+](=O)[O-])c1OC(=O)OC(C)C (configuration not stated) returns the recorded outcome of this test.
A. inactive

The measured values listed here are drawn from the supplement of paper PMC12669032.
